assayed.system: human Claudin18.2 (CLDN18.2) (human, UniProt P56856 1-261)
method: cell-based or functional assay
Parameter CDC EC50: see the listing below.
measure.name: CDC EC50 (nM)

>>> measured_result("chAb25 (antibody, V domains shown) VH: EAQLQQSGPELVKPGASVKIFCKASGYTFTDYYINWVKQSHGKSLEWIGDINPNNGGTTYNQKFKGKATLTVDKSSSTASMELRRLTSEDSSVYYCARRDAMDYWGQGTSVTVSS VL: DIVMTQSQKFMSTTVGDRVSITCTASQNVGPAVAWYQQKPGQSPKLLIYSASRRFTGVPDRFTGSGSGTVFTLTINNVQSEDLADYFCQQYISYPLTFGAGTKLELK")
25.4
>>> measured_result("chAb17 (antibody, V domains shown) VH: QVQLKESGPGLVAPSQSLSITCTVSGFSLTSYAISWVRQPPGKGLEWLGEIWTGGGTNYNSALKSRLSISKDNSKSQVFLKMNSLQTDDTARYYCGRLSYGNSLDYWGQGTTLTVSS VL: DIVMTQSPSSLTVTAGEKVTMSCKSSQSLLNSGNQKNYLTWYQQKPGQPPKLLIYWASTRESGVPDRFTGSGSGTDFTLTVSSVQAEDLAVYYCQNNFIYPLTFGPGTKLELK")
9.93
>>> measured_result("chAb15 (antibody, V domains shown) VH: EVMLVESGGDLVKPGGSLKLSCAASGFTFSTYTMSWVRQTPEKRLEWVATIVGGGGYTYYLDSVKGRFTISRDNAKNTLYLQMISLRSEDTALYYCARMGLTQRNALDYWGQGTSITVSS VL: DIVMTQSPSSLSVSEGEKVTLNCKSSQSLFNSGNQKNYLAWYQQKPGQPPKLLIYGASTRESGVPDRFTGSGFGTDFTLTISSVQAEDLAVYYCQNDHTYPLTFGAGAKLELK")
8.15

Hey, just so you know, these numbers are from patent US20230095569A1.
